Biological target: T1, human DEAF-1 MYND domain (residues 501–544) (human, UniProt O75398 501-544)
T1 construct: N-terminal insertion of three amino acids GAM; DEAF-1, human, MYND domain, residues 501-544; 15N- or 15N/13C-labelled for NMR; also called short construct; source: E. coli BL21(DE3), purified (Ni-NTA, TEV cleavage, second Ni column, Superdex 75); not shown: poly-histidine tag, N-terminal, cleaved; thioredoxin, N-terminal, cleaved
T1 chain: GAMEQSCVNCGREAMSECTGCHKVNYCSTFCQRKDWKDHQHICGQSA
Assay: NMR titration; 1 mM 15N-labeled DEAF-1 MYND titrated with unlabeled peptide (SMRT up to 9-fold, NCoR up to 5-fold molar excess); chemical shift perturbations fitted to a binding isotherm; fast exchange
Details: both partners purified
Answer each item with its documented Kd.

Endpoint output: Kd of SNPPPLISSA (silencing mediator of retinoid and thyroid receptor (SMRT), residues 1111-1120; Unlabelled peptide; also called SMRT peptide) [SMRT corepressor peptide (residues 1111–1120 of SMRT)] . Value?
5.3 mM

Another binder to check: RPPPPLIPSS (nuclear receptor corepressor (NCoR), residues 1031-1040; Unlabelled peptide; also called NCoR peptide) [NCoR corepressor peptide (residues 1031–1040 of NCoR)]
3.08 mM
